System: TK-10
ASSAY NOTES: NCI tumour cell line growth inhibition, 48 h
Active and inactive are the calls of the source. No stated cut-off is given here; in the data, active = GI50 up to about 1.1 µM and inactive = higher.
QUANTITY NAME: GI50

Answered cases to consult:
{"COMPOUND": "O=C1c2cc3c(cc2[C@@H]2C(O)[C@H]4O[C@H]4C4CCN1C42)OCO3 (some centres undefined)", "ASSAYED TARGET": "TK-10", "GI50": "> 37.5 µM (inactive)"}
{"COMPOUND": "CC(=O)C1(C(=O)C(=[N+]=[N-])S(=O)(=O)c2ccccc2)CC1", "ASSAYED TARGET": "TK-10", "GI50": "> 100 µM (inactive)"}
{"COMPOUND": "COC(=O)c1c(C)[nH]c2c1cc(O)c1nc(C)c(C)nc12", "ASSAYED TARGET": "TK-10", "GI50": "29.2 µM (inactive)"}
{"COMPOUND": "CC1=NN(C(=O)Cc2ccccc2)C(=O)/C1=C\\C=C\\c1ccccc1", "ASSAYED TARGET": "TK-10", "GI50": "> 100 µM (inactive)"}
{"COMPOUND": "CCCCN(CCCC)C(=O)C(=O)CC(=O)/C=C/c1ccccc1", "ASSAYED TARGET": "TK-10", "GI50": "> 100 µM (inactive)"}

Q: I'd like to know its GI50. The compound in question is CS(=O)(=O)NNS(=O)(=O)c1cccc([N+](=O)[O-])c1
A: > 100 µM (inactive)

Q: Also O=c1[nH]nc(-c2ccccc2)n1/N=C/c1ccco1 ?
A: > 100 µM (inactive)

Q: Also COC12CC(O)=C(C(C)=O)C(=O)C1(C)c1c(OC(C)=O)c(C)c(O)c(C(C)=O)c1O2 (centres undefined) ?
A: 25.4 µM (inactive)

Q: Also CC1CC(=O)C2CC(CO)=CCCC2C1(C)CC/C(=C/CO)CO (centres undefined) ?
A: > 100 µM (inactive)
